- Species: Oryctolagus cuniculus
- protocol-details: Mydriatic effect in rabbit assessed as change in pupil diameter under constant light at 0.02 M after 10 mins
- Assay type: functional

[
  {
    "compound": "CC(=O)O[C@@H]1CC2C[C@H](OC(=O)c3ccc([N+](=O)[O-])cc3)CC1N2C (some centres undefined)",
    "endpoint-unit": "%",
    "Activity": 3.7
  },
  {
    "compound": "CC(=O)O[C@H]1CC2C[C@@H](OC(=O)c3ccc(Cl)cc3)CC1N2C (some centres undefined)",
    "endpoint-unit": "%",
    "Activity": 32.2
  },
  {
    "compound": "CC(=O)O[C@H]1CC2C[C@@H](OC(=O)c3ccc([N+](=O)[O-])cc3)CC1N2C (some centres undefined)",
    "endpoint-unit": "%",
    "Activity": 35.1
  },
  {
    "compound": "CC(=O)O[C@@H]1CC2C[C@H](OC(=O)c3ccc(Cl)cc3)CC1N2C (some centres undefined)",
    "endpoint-unit": "%",
    "Activity": 3
  }
]
